Entries and their measured AC50 follow.
Molecular target: Prostaglandin G/H synthase 1 (Homo sapiens, UniProt P23219); note: assay procedure not described here
Sequence (P23219 whole entry): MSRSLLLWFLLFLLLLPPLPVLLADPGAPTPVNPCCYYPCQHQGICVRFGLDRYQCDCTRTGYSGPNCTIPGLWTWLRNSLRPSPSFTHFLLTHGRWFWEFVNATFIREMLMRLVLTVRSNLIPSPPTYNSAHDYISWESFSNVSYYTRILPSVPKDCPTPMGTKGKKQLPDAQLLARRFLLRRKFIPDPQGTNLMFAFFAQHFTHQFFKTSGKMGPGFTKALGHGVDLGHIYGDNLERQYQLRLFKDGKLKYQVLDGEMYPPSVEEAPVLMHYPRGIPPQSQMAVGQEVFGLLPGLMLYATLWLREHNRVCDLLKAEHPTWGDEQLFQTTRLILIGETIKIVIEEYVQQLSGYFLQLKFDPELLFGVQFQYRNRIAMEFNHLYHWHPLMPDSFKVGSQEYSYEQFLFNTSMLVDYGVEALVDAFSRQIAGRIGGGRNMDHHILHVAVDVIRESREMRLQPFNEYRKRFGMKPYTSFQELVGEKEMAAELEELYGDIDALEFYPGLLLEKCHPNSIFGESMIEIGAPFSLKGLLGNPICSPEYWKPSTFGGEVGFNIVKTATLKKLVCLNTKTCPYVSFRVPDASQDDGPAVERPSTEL
Assay type: functional

In the examples that follow, each entry is paired with its recorded AC50.
molecule="COc1ccc(C(=O)Nc2ccccc2CCC2CCCCN2C)cc1 (stereo not drawn) [ENCAINIDE]" test_value="> 30 µM"
molecule="CC(CNC(=O)c1ccccc1)C(=O)OCC(=O)[C@@]12OC(C)(C)O[C@@H]1C[C@H]1[C@@H]3CCC4=CC(=O)C=C[C@]4(C)[C@@]3(F)[C@@H](O)C[C@@]12C (stereo partly drawn) [TRIAMCINOLONE BENETONIDE]" test_value="> 30 µM"
molecule="COc1ccccc1N1CCN(CC(O)COc2cccc3ccccc23)CC1 (stereo not drawn)" test_value="> 30 µM"
molecule=CO[C@H]1C[C@@H]2CC[C@@H](C)[C@@](O)(O2)C(=O)C(=O)N2CCCC[C@H]2C(=O)O[C@H]([C@H](C)C[C@@H]2CC[C@@H](O)[C@H](OC)C2)CC(=O)[C@H](C)/C=C(\C)[C@@H](O)[C@@H](OC)C(=O)[C@H](C)C[C@H](C)/C=C/C=C/C=C/1C test_value="23.3 µM"
molecule=O=C(O)c1ccccc1C(=O)Nc1ccc(S(=O)(=O)Nc2nccs2)cc1 test_value="8.95 µM"
molecule=CCCCCCOc1nsnc1C1=CCCN(C)C1 test_value="> 30 µM"
molecule=CCN(CC)CCNc1ccc(CO)c2sc3ccccc3c(=O)c12 test_value="> 30 µM"

Now take the following molecule into account.
AC50 measured on CCC(CC)(CC(=O)Nc1cccc(/C=C/c2nc(C3CCC3)cs2)c1)C(=O)O = 26.2 µM

====

AC50, Sodium-dependent serotonin transporter (Homo sapiens, UniProt P31645), per-entry values.

In the examples that follow, each entry is paired with its recorded AC50.
compound="NC(=O)OCC(COC(N)=O)c1ccccc1 [FELBAMATE]" test_value="> 10 µM"
compound="CNC1Cc2ccccc2N(C)c2ccccc21 (stereo not given) [METAPRAMINE]" test_value="14 µM"
compound="CC(=O)NCCCS(=O)(=O)O [ACAMPROSATE]" test_value="> 30 µM"
compound=COc1ccc(-c2ccc3cc(C(=O)O)ccc3c2)cc1C12CC3CC(CC(C3)C1)C2 test_value="> 30 µM"

AC50 measured on NC(=O)CN1CC(O)CC1=O (stereo not given) [OXIRACETAM] = > 30 µM

AC50 measured on Nc1nc(/C(=C/CC(=O)O)C(=O)N[C@@H]2C(=O)N3C(C(=O)O)=CCS[C@H]23)cs1 [CEFTIBUTEN] = > 30 µM

AC50 measured on CCC1(CC)C(=O)NCC(C)C1=O (stereo not given) [METHYPRYLON] = > 30 µM

====

Biological target: Alpha-2A adrenergic receptor (Homo sapiens, UniProt P08913); note: assay procedure not described here
Sequence (P08913 whole entry): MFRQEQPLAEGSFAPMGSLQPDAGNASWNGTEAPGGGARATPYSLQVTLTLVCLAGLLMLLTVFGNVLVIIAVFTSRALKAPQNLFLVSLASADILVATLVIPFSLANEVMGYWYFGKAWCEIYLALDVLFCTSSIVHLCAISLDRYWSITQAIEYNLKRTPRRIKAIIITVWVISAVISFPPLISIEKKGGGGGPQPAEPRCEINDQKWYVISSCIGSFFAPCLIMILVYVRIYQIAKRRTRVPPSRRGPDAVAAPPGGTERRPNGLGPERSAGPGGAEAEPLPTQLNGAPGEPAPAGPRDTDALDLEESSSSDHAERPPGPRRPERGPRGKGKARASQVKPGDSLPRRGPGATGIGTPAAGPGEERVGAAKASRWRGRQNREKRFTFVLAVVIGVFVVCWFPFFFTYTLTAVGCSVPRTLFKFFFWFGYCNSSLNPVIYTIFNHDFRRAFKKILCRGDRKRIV
Assay type: functional, cell-based
QUANTITY KIND: AC50

In the examples that follow, each entry is paired with its recorded AC50.
molecule=CC(C)(C)C(=O)Oc1ccc(S(=O)(=O)Nc2ccccc2C(=O)NCC(=O)O)cc1 test_value="> 30 µM"
molecule="COCCCN1CCC(NC(=O)c2cc(Cl)c(N)c3c2OCC3)CC1 [PRUCALOPRIDE]" test_value="> 30 µM"
molecule="Nc1nc(Cl)nc2c1ncn2[C@H]1C[C@H](O)[C@@H](CO)O1 [CLADRIBINE]" test_value="> 30 µM"
molecule="CCC(C)n1ncn(-c2ccc(N3CCN(c4ccc(OCC5COC(Cn6cncn6)(c6ccc(Cl)cc6Cl)O5)cc4)CC3)cc2)c1=O (stereo not drawn) [ITRACONAZOLE]" test_value="> 30 µM"

AC50 measured on OC(CNCC(O)C1CCc2cc(F)ccc2O1)C1CCc2cc(F)ccc2O1 (stereo not drawn) [NEBIVOLOL] = > 30 µM

====

Entries and their measured AC50 follow.
Target: D(1A) dopamine receptor (Homo sapiens, UniProt P21728); note: assay procedure not described here
Sequence (P21728 whole entry): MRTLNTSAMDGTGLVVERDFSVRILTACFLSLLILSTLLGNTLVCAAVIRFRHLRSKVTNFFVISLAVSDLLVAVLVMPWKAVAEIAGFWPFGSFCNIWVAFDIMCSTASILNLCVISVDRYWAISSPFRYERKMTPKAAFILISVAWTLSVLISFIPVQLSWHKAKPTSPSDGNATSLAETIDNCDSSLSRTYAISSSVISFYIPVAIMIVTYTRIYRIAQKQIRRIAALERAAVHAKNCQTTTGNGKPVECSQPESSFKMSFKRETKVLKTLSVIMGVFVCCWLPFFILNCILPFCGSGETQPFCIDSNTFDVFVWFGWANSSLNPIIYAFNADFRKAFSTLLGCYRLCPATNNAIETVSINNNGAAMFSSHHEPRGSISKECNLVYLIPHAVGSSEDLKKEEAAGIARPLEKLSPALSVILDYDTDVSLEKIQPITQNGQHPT
Assay type: functional, cell-based

In the examples that follow, each entry is paired with its recorded AC50.
molecule="NCC(CC(=O)O)c1ccc(Cl)cc1 (configuration not stated)" test_value="> 30 µM"
molecule="C=CCN1CCCC1CNC(=O)c1cc(S(N)(=O)=O)cc(OC)c1OC (configuration not stated) [VERALIPRIDE]" test_value="> 30 µM"
molecule=C[C@@H](O)[C@H]1C(=O)N2C(C(=O)O)=C(S[C@@H]3CN[C@H](C(=O)N(C)C)C3)[C@H](C)[C@H]12 test_value="> 300 µM"
molecule=CC(=O)c1ccc2c(c1)N(CCCN(C)C)c1ccccc1S2 test_value="1.4 µM"
molecule="C1CCC(C(CC2CCCCN2)C2CCCCC2)CC1 (configuration not stated)" test_value="> 30 µM"
molecule="Cn1nnc2c(C(N)=O)ncn2c1=O [TEMOZOLOMIDE]" test_value="> 30 µM"
molecule=C=CCN1C[C@H](C(=O)N(CCCN(C)C)C(=O)NCC)C[C@@H]2c3cccc4[nH]cc(c34)C[C@H]21 test_value="> 30 µM"
molecule=CN1CCN(CC/C=C2/c3ccccc3Sc3ccc(S(=O)(=O)N(C)C)cc32)CC1 test_value="0.98 µM"
molecule=c1cnc(N2CCN(Cc3ccc4c(c3)OCO4)CC2)nc1 test_value="> 30 µM"
molecule=CC(C)C[C@H]1C(=O)N2CCC[C@H]2[C@]2(O)O[C@](NC(=O)[C@@H]3C=C4c5cccc6[nH]c(Br)c(c56)C[C@H]4N(C)C3)(C(C)C)C(=O)N12 test_value="> 30 µM"

Entry O=C(OCC(O)CO)c1ccccc1Nc1ccnc2cc(Cl)ccc12 (configuration not stated) , D(1A) dopamine receptor (Homo sapiens, UniProt P21728) data, AC50 value: > 30 µM

Entry c1ccc([C@H]2CN3CCSC3=N2)cc1 , D(1A) dopamine receptor (Homo sapiens, UniProt P21728) data, AC50 value: > 30 µM

====

Target: Prostaglandin G/H synthase 1 (Homo sapiens, UniProt P23219); note: assay procedure not described here
Format: functional
Entries and their measured AC50 follow.

In the examples that follow, each entry is paired with its recorded AC50.
molecule=OCCN1C[C@H](O)[C@@H](O)[C@H](O)[C@H]1CO quantity_kind=AC50 test_value="> 30 µM"
molecule=CCOC(=O)[C@H](CCc1ccccc1)N[C@@H](C)C(=O)N1[C@H](C(=O)O)C[C@H]2CCCC[C@@H]21 quantity_kind=AC50 test_value="> 30 µM"

AC50 measured on CCc1oc2ccccc2c1C(=O)c1cc(I)c(O)c(I)c1 = 8.33 µM

AC50 measured on Oc1c(Cl)cc(Cl)c2cccnc12 = > 0.3 µM

AC50 measured on CC[C@H]1OC(=O)[C@H](C)[C@@H](O[C@H]2C[C@@](C)(OC)[C@@H](O)[C@H](C)O2)[C@H](C)[C@@H](O[C@@H]2O[C@H](C)C[C@H](N(C)C)[C@H]2O)[C@](C)(O)C[C@@H](C)CN(C)[C@H](C)[C@@H](O)[C@]1(C)O = > 30 µM

AC50 measured on CCCC1O[C@@H]2C[C@H]3[C@@H]4CCC5=CC(=O)C=C[C@]5(C)[C@H]4[C@@H](O)C[C@]3(C)[C@]2(C(=O)CO)O1 (stereo partly specified) [BUDESONIDE] = > 30 µM

====

Molecular target: Sodium-dependent dopamine transporter (Homo sapiens, UniProt Q01959); note: assay procedure not described here
Sequence (Q01959 whole entry): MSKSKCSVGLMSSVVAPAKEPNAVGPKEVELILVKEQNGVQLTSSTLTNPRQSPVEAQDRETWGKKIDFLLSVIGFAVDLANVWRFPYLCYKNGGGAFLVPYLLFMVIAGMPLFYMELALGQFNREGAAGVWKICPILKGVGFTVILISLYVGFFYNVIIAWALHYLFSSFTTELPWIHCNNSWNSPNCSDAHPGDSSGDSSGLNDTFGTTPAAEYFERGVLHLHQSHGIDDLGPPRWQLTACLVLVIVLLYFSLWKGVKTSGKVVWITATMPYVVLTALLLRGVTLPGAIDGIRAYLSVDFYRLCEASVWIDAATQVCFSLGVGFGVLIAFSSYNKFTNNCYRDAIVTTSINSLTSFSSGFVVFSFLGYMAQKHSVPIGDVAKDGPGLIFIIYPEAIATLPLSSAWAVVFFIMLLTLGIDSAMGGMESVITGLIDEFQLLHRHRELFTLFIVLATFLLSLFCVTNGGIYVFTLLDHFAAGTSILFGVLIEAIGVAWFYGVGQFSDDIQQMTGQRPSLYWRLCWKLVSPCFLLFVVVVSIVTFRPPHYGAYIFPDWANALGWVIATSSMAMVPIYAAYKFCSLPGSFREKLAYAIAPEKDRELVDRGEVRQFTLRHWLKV
QUANTITY KIND: AC50

compound="C[C@]12CC[C@@H]3c4ccc(O)cc4CC[C@H]3[C@@H]1C[C@@H](O)[C@@H]2O [ESTRIOL]" quantity_kind=AC50 test_value="28.7 µM"

Entry CC(C)(C)C(=O)C(Oc1ccc(Cl)cc1)n1ccnc1 (centres undefined) [CLIMBAZOLE] , Sodium-dependent dopamine transporter (Homo sapiens, UniProt Q01959) data, AC50 value: 0.0662 µM

Entry CC(=O)[C@@]1(O)CC[C@H]2[C@@H]3C=C(C)C4=CC(=O)CC[C@]4(C)[C@H]3CC[C@@]21C , Sodium-dependent dopamine transporter (Homo sapiens, UniProt Q01959) data, AC50 value: > 30 µM

Entry Cc1cn([C@H]2C[C@H](N=[N+]=[N-])[C@@H](CO)O2)c(=O)[nH]c1=O [ZIDOVUDINE] , Sodium-dependent dopamine transporter (Homo sapiens, UniProt Q01959) data, AC50 value: > 30 µM

Origin of measurements: ChEMBL document CHEMBL5291721
